pIC50: −log10 of the molar value.
For reference, pIC50 measured on human mPGES-1 (Homo sapiens, UniProt O14684):
QUANTITY KIND: pIC50

> print(dat)
                                    compound                               target.desc  readout.number
 1  Oc1nc(-c2ccc(C#Cc3ccccn3)cc2)nc(-c2c(Cl)cccc2OCc2ccccn2)n1 [Example 2-97]  human mPGES-1 (Homo sapiens, UniProt O14684)            8.05
 2  Oc1nc(-c2ccc(C(F)(F)F)cc2)nc(-c2c(Cl)cccc2OCc2ccccc2)n1 [Example 2-32]  human mPGES-1 (Homo sapiens, UniProt O14684)            7.85
 3  Oc1nc(-c2ccc(C(F)(F)F)cc2)nc(-c2cc(OC(F)(F)F)ccc2Cl)n1 [Example 1-5]  human mPGES-1 (Homo sapiens, UniProt O14684)            6.17
 4  CCCOc1ccc(-c2nc(O)nc(-c3cc(CN4CC(C)(C)C4=O)ccc3Cl)n2)cc1 [Example 1-158]  human mPGES-1 (Homo sapiens, UniProt O14684)            7.92
 5  CCCc1cc(-c2nc(O)nc(-c3cc(CNC(=O)C(C)(C)C(F)(F)F)ccc3Cl)n2)ccc1F [Example 1-118]  human mPGES-1 (Homo sapiens, UniProt O14684)            8.72
 6  CC(C)(C(=O)NCc1ccc(Cl)c(-c2nc(O)nc(-c3ccc(C#CC4CCCCC4)cc3)n2)c1)C(F)(F)F [Example 1-191]  human mPGES-1 (Homo sapiens, UniProt O14684)            7.82
 7  CC(C)(C(=O)NCc1ccc(Cl)c(-c2nc(O)nc(-c3ccc(OCC(F)(F)F)cc3)n2)c1)C(F)(F)F [Example 1-113]  human mPGES-1 (Homo sapiens, UniProt O14684)            9.05
 8  CC(C)Oc1ccc(-c2nc(O)nc(-c3cc(CNC(=O)C(C)(C)C(F)(F)F)ccc3Cl)n2)cc1 [Example 1-140]  human mPGES-1 (Homo sapiens, UniProt O14684)            9.30
 9  Cc1cc(-c2nc(O)nc(-c3cc(CNC(=O)C(C)(C)C(F)(F)F)ccc3Cl)n2)ccc1Cl [Example 1-112]  human mPGES-1 (Homo sapiens, UniProt O14684)            9.05
10  CC(C)COc1ccc(-c2nc(O)nc(-c3c(Cl)cccc3OCc3ccccn3)n2)cc1 [Example 2-66]  human mPGES-1 (Homo sapiens, UniProt O14684)            7.80
11  Cc1cccc(C)c1-c1nc(O)nc(-c2ccc(OC(C)C)cc2)n1 [Example 2-38]  human mPGES-1 (Homo sapiens, UniProt O14684)            6.00
12  CCCCCOc1ccc(-c2nc(O)nc(-c3c(C)cccc3C)n2)cc1 [Example 2-69]  human mPGES-1 (Homo sapiens, UniProt O14684)            7.08
13  COc1cccc(COc2cccc(C(F)(F)F)c2-c2nc(O)nc(-c3ccc(C#Cc4ccccc4)cc3)n2)n1 [Example 2-118]  human mPGES-1 (Homo sapiens, UniProt O14684)            8.15
14  O=C(NCc1ccc(Cl)c(-c2nc(O)nc(-c3ccccc3)n2)c1)C1CCCCC1 [Example 1-71]  human mPGES-1 (Homo sapiens, UniProt O14684)            8.60
15  CO[C@](C)(C(=O)NCc1ccc(Cl)c(-c2nc(O)nc(-c3cccc(C(C)C)c3)n2)c1)C(F)(F)F [Example 1-108]  human mPGES-1 (Homo sapiens, UniProt O14684)            9.22
16  C[C@H](Oc1cccc(Cl)c1-c1nc(O)nc(-c2ccc(C#Cc3ccccc3)cc2)n1)c1ccccn1 [Example 2-86]  human mPGES-1 (Homo sapiens, UniProt O14684)            8.66

The reported numbers originate from patent US12398111B2.
